Listing: kon of selected binders
measuredTarget: T1, recombinant human IFN-γ protein (human, UniProt P01579 24-166, limits assumed)
T1 construct: Bought protein; also called interferon gamma; R&D systems 285-IF-100
T1 sequence: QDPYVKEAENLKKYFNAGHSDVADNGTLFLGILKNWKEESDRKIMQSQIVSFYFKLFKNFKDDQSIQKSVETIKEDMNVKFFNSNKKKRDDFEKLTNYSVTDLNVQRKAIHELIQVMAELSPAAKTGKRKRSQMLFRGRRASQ
testMethodNotes: BLI (Octet RED96), mAb captured on AHC biosensor, recombinant human IFN-γ in solution, 1:1 model; second experiment
Only the number, expressed in M⁻¹ s⁻¹, is required.

binder: antibody 2B6 (antibody, human IgG1, V domains shown, Human IgG1 lambda) VH: EVQLVESGGGLVKPGGSLRLSCAASGFPFSRYSMHWVRQAPGKGLEWVSSMTSRTNHKYYADSLKGRFLISRDNDRDSLYLEMNSLGVEDTAIYFCARGYDTSGSDSGVDFQYWGQGTLVTVSS VL: NFMLTQPHSVSESPGKTITISCTRGRGYIASYYVQWYQQRPGGVPKIVVFEDTQRPSGVPDRISGSIDTSTNSASLTISGLQTEDEADYYCQSYDDANHVIFGGGTKLTVL
kon (M⁻¹ s⁻¹): 3.13e+06

Now take the following binder into account.
Query: I'd like to know its kon. The binder in question is antibody 2A6 (antibody, human IgG1, V domains shown, partial N-linked glycosylation at Asn-76 of the VH, Human antibody from a single B cell, cloned into human IgG1 lambda expression vectors and made in FreeStyle 293-F cells) VH: EVQLVESGGGLVKPGDSLTVSCVASGFTFSNYFIHWVRQAPGKGLEWVATISGRTKYMFYSDSLRGRFTVSRDNANNSVYLHMSSLRGEDTALYYCVRGYDHSDSNSAADLLHWGRGTLVTVSS VL: NFMLTQPLSVSGYPGKTIVISCVRSSGSVASHYVQWFQQRPGSAPAMVIYEDSHRPSGIPDRFSGSVDASSNSASLTISGLKTEDEADYFCQSYYGNNQVLFGGGTKLTVL
Response: 2.61e+06
